tested on: RD; experiment: Cytotoxicity against human RD cells assessed as inhibition of cell viability by measuring ATP level incubated for 72 hrs by cell titer-glo luminescent cell viability assay; type: functional
A collection of compounds and their measured CC50

Below, each entry is followed by its recorded CC50 result.
> print(dat)
                                   compound  measured.endpoint  reported
1  CCc1nc(-c2cnc3ccc(-c4ccc(OC)cc4)cc3c2)no1               CC50  > 2.5 µM
2   Cc1nc(-c2cnc3ccc(-c4ccc(N)cc4)cc3c2)no1               CC50  > 2.5 µM
3  CCCc1ccc(-c2ccc3ncc(-c4noc(C)n4)cc3c2)cc1               CC50  > 7.4 µM
4    CCCc1ccc(-c2ccc3ncc(C(=O)OCC)cc3c2)cc1               CC50  > 7.4 µM
5  CCCc1nc(-c2cnc3ccc(-c4ccc(N)cc4)cc3c2)no1               CC50  > 0.8 µM

Prompt: Let me know recorded CC50 for `CCc1nc(-c2cnc3ccc(-c4ccccc4)cc3c2)no1` , thanks.
Response: > 7.4 µM

Prompt: Let me know recorded CC50 for `CCc1nc(-c2cnc3ccc(-c4ccc(N5CCOCC5)cc4)cc3c2)no1` , thanks.
Response: > 200 µM

Prompt: Let me know recorded CC50 for `CCc1nc(-c2cnc3ccc(-c4ccc(N)nc4)cc3c2)no1` , thanks.
Response: > 66.7 µM

* * *

tested on: enterovirus D68; assay: Antiviral activity against Enterovirus-D68 fermon infected in human RD cells assessed as reduction in virus induced cytopathic effect by measuring ATP level incubated for 72 hrs by cell titer-glo luminescent cell viability assay; assay type: functional, organism-based; conditions: Enterovirus D
measured endpoint: pEC50
Please report pEC50 as the negative decimal logarithm of the molar concentration, giving only the number.

Below, each entry is followed by its recorded pEC50 result.
> print(dat)
                               smiles.entry  reported
1  Cc1cc(CCCOc2c(C)cc(-c3noc(C(F)(F)F)n3)cc2C)on1      6.52
2  CCc1nc(-c2cnc3ccc(-c4ccc(N)cc4)cc3c2)no1.Cl      7.22

Consider now this further molecule.
Prompt: Let me know recorded pEC50 for `Cl.Nc1ccc(-c2ccc3ncc(-c4noc(C(F)(F)F)n4)cc3c2)cc1` , thanks.
Response: 7.05

* * *

A collection of compounds and their measured selectivity ratio
experiment: Selectivity index, ratio of CC50 for human RD cells to EC50 for Enterovirus-D68 fermon infected in human RD cells; assay type: toxicity, cell-based; settings: read-out: Ratio CC50/EC50

Below, each entry is followed by its recorded selectivity ratio result.
> print(dat)
                                   compound  reported
1  Cl.Nc1ccc(-c2ccc3ncc(-c4noc(C(F)(F)F)n4)cc3c2)cc1     > 123
2  CCc1nc(-c2cnc3ccc(-c4ccc(N)cc4)cc3c2)no1.Cl     > 185

Consider now this further compound.
Prompt: Let me know recorded selectivity ratio for Cc1cc(CCCOc2c(C)cc(-c3noc(C(F)(F)F)n3)cc2C)on1 [PLECONARIL] , thanks.
Response: > 333

* * *

assay: Selectivity index, ratio of CC50 for human RD cells to EC50 for Enterovirus-D68 STL-2014-12 infected in human RD cells to; format: toxicity, cell-based
A collection of molecules and their measured Ratio CC50/EC50

Below, each entry is followed by its recorded Ratio CC50/EC50 result.
> print(dat)
                               smiles.entry  reported
1  Nc1ccc(-c2ccc3ncc(-c4noc(C(F)(F)F)n4)cc3c2)cc1      > 50
2  CCc1nc(-c2cnc3ccc(-c4ccc(N)cc4)cc3c2)no1      > 25
3  CCc1nc(-c2cnc3ccc(-c4ccc(N)cc4)cc3c2)no1.Cl     > 139

Consider now this further molecule.
Prompt: Let me know recorded Ratio CC50/EC50 for `Cl.Nc1ccc(-c2ccc3ncc(-c4noc(C(F)(F)F)n4)cc3c2)cc1` , thanks.
Response: > 111

* * *

A collection of compounds and their measured selectivity ratio
experiment: Selectivity index, ratio of CC50 for human RD cells to EC50 for Enterovirus-D68 US/KY/14-18953 infected in human RD cells; assay type: toxicity, cell-based; conditions: read-out: Ratio CC50/EC50

Below, each entry is followed by its recorded selectivity ratio result.
> print(dat)
                               smiles.entry  measured.endpoint  reported
1  Cc1cc(CCCOc2c(C)cc(-c3noc(C(F)(F)F)n3)cc2C)on1  selectivity ratio     > 417
2  CCc1nc(-c2cnc3ccc(-c4ccc(N)cc4)cc3c2)no1.Cl  selectivity ratio     > 159

Prompt: Let me know recorded selectivity ratio for `Cl.Nc1ccc(-c2ccc3ncc(-c4noc(C(F)(F)F)n4)cc3c2)cc1` , thanks.
Response: > 123

* * *

A collection of compounds and their measured selectivity ratio
test: Selectivity index, ratio of CC50 for human RD cells to EC50 for Enterovirus-D68 US/MO/14-18947 infected in human RD cells; assay type: toxicity, cell-based; settings: read-out: Ratio CC50/EC50

> print(dat)
                                   compound  reported
1  Cl.Nc1ccc(-c2ccc3ncc(-c4noc(C(F)(F)F)n4)cc3c2)cc1     > 123
2  Cc1cc(CCCOc2c(C)cc(-c3noc(C(F)(F)F)n3)cc2C)on1 [PLECONARIL]     > 156

Consider now this further compound.
Prompt: Let me know recorded selectivity ratio for `CCc1nc(-c2cnc3ccc(-c4ccc(N)cc4)cc3c2)no1.Cl` , thanks.
Response: > 159

* * *

tested on: RD; test: Cytotoxicity against human RD cells assessed as inhibition of cell viability by measuring ATP level incubated for 72 hrs by cell titer-glo luminescent cell viability assay; assay type: functional
measured endpoint: CC50

Below, each entry is followed by its recorded CC50 result.
> print(dat)
                                   molecule   reported
1  FC(F)(F)c1nc(-c2cnc3ccc(-c4ccc(N5CCOCC5)cc4)cc3c2)no1  > 22.2 µM
2  CCc1nc(-c2cnc3ccc(-c4ccc(NC(C)=O)cc4)cc3c2)no1   > 7.4 µM
3  Nc1ccc(-c2ccc3ncc(-c4noc(C(F)(F)F)n4)cc3c2)cn1   > 2.5 µM

Prompt: State CC50 (RD) of `Cc1nc(-c2cnc3ccc(-c4ccccc4)cc3c2)no1` .
Response: > 2.5 µM

Prompt: State CC50 (RD) of `CCc1ccc(-c2ccc3ncc(-c4noc(CC)n4)cc3c2)cc1` .
Response: > 22.2 µM

Prompt: State CC50 (RD) of `Cc1nc(-c2cnc3ccc(-c4ccc(N)nc4)cc3c2)no1` .
Response: > 7.4 µM

Prompt: State CC50 (RD) of `CCc1nc(-c2cnc3ccc(-c4ccc(Cl)cc4)cc3c2)no1` .
Response: > 22.2 µM

* * *

A collection of compounds and their measured CC50
tested on: RD; experiment: Cytotoxicity against human RD cells assessed as inhibition of cell viability by measuring ATP level incubated for 72 hrs by cell titer-glo luminescent cell viability assay; assay type: functional

> print(dat)
                           smiles.entry  measured.endpoint  reported
1  CCOC(=O)c1cnc2ccc(-c3ccc(N)cc3)cc2c1               CC50  > 7.4 µM

Prompt: State CC50 (RD) of `FC(F)(F)c1nc(-c2cnc3ccc(-c4ccccc4)cc3c2)no1` .
Response: > 22.2 µM

Prompt: State CC50 (RD) of `FC(F)(F)c1nc(-c2cnc3ccc(-c4ccc(Cl)cc4)cc3c2)no1` .
Response: > 200 µM

* * *

test system: RD; assay: Cytotoxicity against human RD cells assessed as inhibition of cell viability by measuring ATP level incubated for 72 hrs by cell titer-glo luminescent cell viability assay; assay type: functional
A collection of molecules and their measured CC50

> print(dat)
                                    molecule   reported
 1      CCOC(=O)c1cnc2ccc(-c3cccc(N)c3)cc2c1   > 7.4 µM
 2   Cc1nc(-c2cnc3ccc(-c4ccc(O)cc4)cc3c2)no1   > 2.5 µM
 3  CCc1nc(-c2cnc3ccc(-c4ccc(N)c(Cl)c4)cc3c2)no1   > 7.4 µM
 4         CCOC(=O)c1cnc2ccc(-c3ccccc3)cc2c1   > 7.4 µM
 5  Cc1ccc(-c2ccc3ncc(-c4noc(C(F)(F)F)n4)cc3c2)cc1  > 22.2 µM
 6  CCc1nc(-c2cnc3ccc(-c4ccc(N)cc4)cc3c2)no1   > 2.5 µM
 7  CCOC(=O)c1cnc2ccc(-c3ccc(C(C)C)cc3)cc2c1   > 7.4 µM
 8  CCc1nc(-c2cnc3ccc(-c4ccc(F)cc4)cc3c2)no1   > 7.4 µM
 9   CCCCc1ccc(-c2ccc3ncc(C(=O)OCC)cc3c2)cc1   > 7.4 µM
10  Nc1ccc(-c2ccc3ncc(-c4noc(C(F)(F)F)n4)cc3c2)cc1   > 2.5 µM

Prompt: Let me know recorded CC50 for `CCCCc1nc(-c2cnc3ccc(-c4ccc(N)cc4)cc3c2)no1` , thanks.
Response: > 2.5 µM

Prompt: Let me know recorded CC50 for `CCc1ccc(-c2ccc3ncc(-c4noc(C)n4)cc3c2)cc1` , thanks.
Response: > 7.4 µM

Prompt: Let me know recorded CC50 for `CCCCc1ccc(-c2ccc3ncc(-c4noc(C)n4)cc3c2)cc1` , thanks.
Response: > 2.5 µM

Prompt: Let me know recorded CC50 for `CCCc1ccc(-c2ccc3ncc(-c4noc(CC)n4)cc3c2)cc1` , thanks.
Response: > 7.4 µM

Prompt: Let me know recorded CC50 for `Cc1ccc(-c2ccc3ncc(-c4noc(C)n4)cc3c2)cc1` , thanks.
Response: > 7.4 µM

Prompt: Let me know recorded CC50 for `CC(C)c1nc(-c2cnc3ccc(-c4ccc(N)cc4)cc3c2)no1` , thanks.
Response: > 0.8 µM

Prompt: Let me know recorded CC50 for Cc1cc(CCCOc2c(C)cc(-c3noc(C(F)(F)F)n3)cc2C)on1 [PLECONARIL] , thanks.
Response: > 200 µM

Prompt: Let me know recorded CC50 for `CCOC(=O)c1cnc2ccc(-c3ccccc3N)cc2c1` , thanks.
Response: > 7.4 µM

Prompt: Let me know recorded CC50 for `CCCCc1ccc(-c2ccc3ncc(-c4noc(CC)n4)cc3c2)cc1` , thanks.
Response: > 7.4 µM

Prompt: Let me know recorded CC50 for `CCc1nc(-c2cnc3ccc(-c4cccc(N)c4)cc3c2)no1` , thanks.
Response: > 7.4 µM

Prompt: Let me know recorded CC50 for `CCCCc1ccc(-c2ccc3ncc(-c4noc(C(F)(F)F)n4)cc3c2)cc1` , thanks.
Response: > 7.4 µM

Value source: ChEMBL document CHEMBL5214977
